# System: HeLa
# test-protocol: Primary qHTS to identify gynecologic anti-cancer compounds using libraries of approved drugs and bioactive compounds (AID 1345084); further: nearly all actives have a fitted effect of over 55% in size
# test-conditions: Gynecologic cancer cell panel viability, ATPlite luminescence, 48 h; series mostly up to 57.5 µM
Results filed as inconclusive are left out. Calls of active or inactive are those of the source. The call rests on the fitted dose curve; in most records, active means well fitted cell-killing curve with a large enough effect; inconclusive means small, poorly fitted or top-dose-only effect, or effect the other way; inactive means flat fitted curve, though single readings scatter.
Outcome field: choose from label 1 = active, label 0 = inactive

[[record]]
molecule = "NC(=O)c1cccc(-c2cc(OC(=O)NC3CCCCC3)ccc2O)c1"
group = "label 0"


Prompt: Dear colleague, could you share the recorded outcome for Cc1csc(NC(=O)c2ccc(COc3cccc(Cl)c3)o2)n1 when you have a moment?
Response: label 0

Prompt: Hi, do you know how C=C1CN(Cc2ccc(C(=O)Nc3ccccc3N)cc2)C(=O)c2ccccc21 came out in this test?
Response: label 1

Prompt: What is the recorded call for this molecule in the test? O=C(Nc1ccccc1)N1CCN(Cc2ccc3ccccc3n2)CC1
Response: label 0

Prompt: Query: recorded result category for CC(=O)NC1=NN(C(C)=O)C(C)(c2ccccc2)S1 (centres undefined) in this test
Response: label 1

Prompt: Please let me know the test result on file for C=C(C)C(=O)OC1CC2(C)OC(=CC2=O)C(=C)CC2OC(=O)C(COC)C12 (centres undefined) .
Response: label 0

Prompt: Can you look up the reported call for Cc1ccc(S(=O)(=O)Nc2ccccc2N2CCCCC2)s1 for me?
Response: label 0

Prompt: Look up the recorded call for CC(C)[C@H]1CC[C@@]2(O)COC(=O)[C@H]2[C@@H]1/C=C(\CO)C(=O)O in this test.
Response: label 0

Prompt: Recorded call for C=C(C(=O)O)C1CC2=C(C)CCCC2(C)C[C@@H]1O (some centres undefined) ?
Response: label 0

Prompt: // param item: COC(=O)C1=CO[C@@H](O[C@@H]2O[C@H](CO)[C@@H](O)[C@H](O)[C@H]2O)C2C1C(=O)C[C@H]2C (some centres undefined) ; yields the recorded call
Response: label 0

Prompt: // param item: C[C@H]1CC(=O)Nc2cccc(-c3cnn(C(C)(C)C)c3)c2N1 ; yields the recorded call
Response: label 0

Prompt: Any idea what this test logged for COc1ccc(CC2C(=O)NC(C)C(=O)N(C)C3Cc4ccc(cc4)Oc4cc(ccc4OC4OC(CO)C(O)C(O)C4O)CC(C(=O)NC(C)C(=O)NC(C)C(=O)N2C)N(C)C3=O)cc1 (centres undefined) ?
Response: label 1

Prompt: Could you check what this test reported for C=C(F)c1sc(CNCCCNc2cc(=O)c3ccccc3[nH]2)c(C)c1Br ?
Response: label 0

Prompt: Tell me the recorded outcome of this test for CCCOC(c1cc2nccc(C(=O)O)c2[nH]1)c1ccccc1Cl (centres undefined) .
Response: label 0

Prompt: Lab log entry: Nc1nc2c(c(N3CCNCC3)n1)CCC1=C2[C@@H]2CCCC[C@@H]2O1 — outcome as called in the assay?
Response: label 0

* * *

# System: PA-1
# test-protocol: Primary qHTS to identify gynecologic anti-cancer compounds using libraries of approved drugs and bioactive compounds (AID 1345084); further: nearly all actives have a fitted effect of over 55% in size
# test-conditions: Gynecologic cancer cell panel viability, ATPlite luminescence, 48 h; series mostly up to 57.5 µM
Inconclusive results are not listed. Calls of active or inactive are those of the source. The call rests on the fitted dose curve; in most records, active means well fitted cell-killing curve with a large enough effect; inconclusive means small, poorly fitted or top-dose-only effect, or effect the other way; inactive means flat fitted curve, though single readings scatter.
I would appreciate it if you answered using one of these outcomes: y = active, n = inactive

Prompt: What did this assay record as the result for COc1ccc(CC2NCCc3c2[nH]c2ccc(C)cc32)cc1OC (stereo not drawn) ?
Response: n

Prompt: Which outcome was assigned to Cc1c(F)cc(C(=O)NC2CC2)cc1-c1c(F)cn2c(C(C)(C)C)nnc2c1F in this test?
Response: n

Prompt: What classification did CC1=CC(=O)C(=C(C)C)CC2C1CCC2(C)O (stereo not drawn) end up with in this test?
Response: n

* * *

# System: Hek293T
# test-protocol: Primary qHTS to identify gynecologic anti-cancer compounds using libraries of approved drugs and bioactive compounds (AID 1345084); further: nearly all actives have a fitted effect of over 55% in size
# test-conditions: Gynecologic cancer cell panel viability, ATPlite luminescence, 48 h, control line for the selectivity index; series mostly up to 57.5 µM
Results filed as inconclusive are left out. Active and inactive are the calls of the source. The call rests on the fitted dose curve; in most records, active means well fitted cell-killing curve with a large enough effect; inconclusive means small, poorly fitted or top-dose-only effect, or effect the other way; inactive means flat fitted curve, though single readings scatter.
Returns: one label drawn from active, inactive

[[record]]
compound = "O=C(Nc1ccc(S(=O)(=O)Nc2ccccc2Cl)c(Cl)c1)c1ccccn1"
target_under_test = "Hek293T"
group = "inactive"


Prompt: Record request — test call for COCCOc1cnc2ccn([C@H](C)c3nnc4c(F)cc(-c5cnn(C)c5)cn34)c(=O)c2c1
Response: inactive

Prompt: Give the logged outcome of this assay for the following compound: COc1ccc([C@H]2CNC(=O)C2)cc1OC1CCCC1
Response: inactive

Prompt: Could you kindly confirm the outcome this assay logged for CC1CC[C@]2(C(=O)O)CC[C@]3(C(=O)O)C(=CCC4[C@@]5(C)CC[C@H](O[C@@H]6O[C@H](CO)[C@@H](O)[C@H](O)[C@H]6O)C(C)(C)C5CC[C@]43C)C2C1C (stereo partly specified) ?
Response: inactive

Prompt: # outcome recorded in this test, key = COc1cc(C(=O)OC[C@@]2(O)CO[C@@H](O[C@H]3[C@H](Oc4ccc(C(=O)O)cc4OC)O[C@H](CO)[C@@H](O)[C@@H]3O)[C@@H]2O)ccc1O
Response: inactive

Prompt: Just curious, what result did CC(=O)CC1CCC(C(C)C(=O)OCC(O)CO)O1 (stereo unspecified) get here?
Response: inactive

Prompt: Please let me know the test result on file for OC[C@@]1(O)CO[C@@H](OC[C@H]2O[C@@H](Oc3c[nH]c4ccccc34)[C@H](O)[C@@H](O)[C@@H]2O)[C@@H]1O .
Response: inactive

Prompt: Could you check what this test reported for COc1ccc(/C=C/C(=O)O[C@@H]2[C@@H](O)[C@@H](O)[C@H](O[C@@H]3C=C(CO)[C@H]4[C@H](O[C@@H]5O[C@H](CO)[C@@H](O)[C@H](O)[C@H]5O)OC=C[C@H]43)O[C@H]2C)cc1O ?
Response: inactive

Prompt: Could you kindly confirm the outcome this assay logged for CC(C)O[C@@H]1O[C@H](CO)[C@@H](O)[C@H](O)[C@H]1O ?
Response: inactive

Prompt: Hi, sorry to bother you, what did the test record for O=C1NC(Cc2ccccc2)C(=O)N2CCCC12 (stereo unspecified) ?
Response: inactive

Prompt: Kindly provide the recorded test outcome for the following compound: Cn1c(=O)n(-c2ccc(C(C)(C)C#N)cc2)c2c3cc(C#Cc4cccnc4)ccc3ncc21
Response: active

Prompt: What classification did CCOc1cc(C)c(Cl)cc1S(=O)(=O)n1cnc2ccccc21 end up with in this test?
Response: inactive

Prompt: Please share the test call associated with COc1c/c(=C2\C=c3ccccc3=N2)[nH]/c1=C\c1[nH]c(C)cc1C .
Response: active

Prompt: Called result for COc1ccc(/C=C/C(=O)O[C@H]2[C@H](O[C@H]3[C@@H]4C=CO[C@@H](O[C@@H]5O[C@H](CO)[C@@H](O)[C@H](O)[C@H]5O)[C@@H]4[C@@]4(CO)O[C@@H]34)O[C@@H](C)[C@H](O)[C@H]2OC(C)=O)cc1
Response: inactive

Prompt: Identify the outcome logged in this assay for the compound shown: COc1ccc(C2(O)CCC(N3CC[C@@H](NC(=O)CNC(=O)c4cccc(C(F)(F)F)c4)C3)CC2)cn1 (stereo partly specified)
Response: inactive

Prompt: Kindly provide the recorded test outcome for the following compound: CC1(C)CC[C@]2(C(=O)O)CC[C@]3(C)C(=CCC4[C@@]5(C)C[C@@H](O)[C@H](O)C(C)(C)C5CC[C@]43C)C2C1 (stereo partly specified)
Response: inactive

* * *

# Test system: HaCat
# test-protocol: Cytotoxic Profiling of Annotated Libraries Using Quantitative High-Throughput Screening (AID 1296008); further: nearly all actives have a fitted effect of over 60% in size; further: potency means the concentration at half of the fitted maximal effect
# test-conditions: Five cell lines viability, CellTiter-Glo ATP luminescence, 48-72 h
Inconclusive results are not listed. The source made the active and inactive calls. Calls follow the shape of the dose curve; as a rule, active = well fitted inhibition curve with a large enough effect; inconclusive = small, poorly fitted or top-dose-only effect; inactive = flat fitted curve, though single readings scatter.
quantity-measured: Potency

Worked examples follow.
[[record]]
compound = "O=C(NCc1ccc(S(=O)(=O)c2cc(F)cc(F)c2)cc1)c1ccc2nccn2c1"
target_under_test = "HaCat"
experimental_result = "32.6 nM (active)"

[[record]]
compound = "C=CC(=O)N1CCN(C(=O)CNc2cc(I)c(Cl)cc2O)CC1"
target_under_test = "HaCat"
experimental_result = "inactive"

[[record]]
compound = "CNC(=O)c1cc(Oc2ccc3nc(N[C@@H]4CCCC[C@H]4O)sc3c2)ccn1"
target_under_test = "HaCat"
experimental_result = "inactive"

[[record]]
compound = "Cc1ccc(C)c(OCCn2cc(C(=O)O)c3ccccc32)c1"
target_under_test = "HaCat"
experimental_result = "inactive"

[[record]]
compound = "O=S(=O)(c1ccccc1)c1cnc2c(N3CCNCC3)cccc2c1"
target_under_test = "HaCat"
experimental_result = "inactive"


// assay HaCat, entry CC(C)c1cc(CNc2nc(Nc3cc(C4CC4)[nH]n3)cc(N3CCN(C)CC3)n2)on1 , Potency value = 2310 nM (active)

Entry COC1/C=C/C(C)(O)C(SCC(N)C(=O)O)CC(=O)OC(C)C(C)CC/C=C/1C (stereo not drawn) , HaCat data, Potency value: inactive

The value of Potency recorded for C[C@@H]1CC[C@]2(C(=O)O[C@@H]3O[C@H](CO)[C@@H](O)[C@H](O)[C@H]3O)CC[C@]3(C)C(=CCC4[C@@]5(C)C[C@@H](O)[C@H](O)[C@](C)(C(=O)O)C5CC[C@]43C)[C@@H]2[C@]1(C)O (stereo partly drawn) when tested on HaCat reads inactive
